Test system: 519858-162-T-J1-PDC complex spheroid viability;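 further: spheroids exposed to compounds for 7 days; 100% = DMSO vehicle control viability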
PROTOCOL_DETAILS: Anticancer human tumor 519858-162-T-J1-PDC patient-derived colon adenocarcinoma cell line growth inhibition [GQUAD]
TEST_SETTINGS: compound 0.1 µM; stronger effect = lower value
For each of the compounds below, state its viability, T/C.

| COMPOUND | ASSAY_SYSTEM | viability, T/C |
| --- | --- | --- |
| Cc1[nH]c2ccc(F)cc2c1-c1nc2c3cccnc3c3ncccc3c2[nH]1 | 519858-162-T-J1-PDC complex spheroid viability | 87.9% [middle of 9 runs] |
| O=c1[nH]cc(F)c(=O)[nH]1 | 519858-162-T-J1-PDC complex spheroid viability | 115% |
| CCCS(=O)(=O)Nc1ccc(F)c(C(=O)c2c[nH]c3ncc(-c4ccc(Cl)cc4)cc23)c1F | 519858-162-T-J1-PDC complex spheroid viability | 112% |

Item Nc1ccn(C2OC(CO)C(O)C2(F)F)c(=O)n1 (centres undefined) ; assay system 519858-162-T-J1-PDC complex spheroid viability; viability, T/C reported as 91.4%

// provenance: PubChem BioAssay AID2060507
